Each recorded value in this set is attributed to PubChem BioAssay (NCI).

System: HCT-15 colon
Experiment: NCI-60 one-dose screen, 48 h (100 = growth as untreated, 0 = no growth, -100 = all killed)
Conditions: 10 µM unless noted
Compounds without any hit were thinned out: in the full panel of roughly 83,000, 20% have a hit. The source made the active and inactive calls. Rule for the calls: active = growth percent below 10; inactive = the rest.
Here, each record is paired with measured growth data.

smiles record | growth
CCCCCC[C@@H](O)C/C=C\CCCCCCCC(=O)OCCOC | 103% (inactive)
CCOC(=O)/C(=C\c1ccc2ccccc2c1)P(=O)(OCC)OCC | 2.93% (active)
O=[N+]([O-])c1ccc(Oc2ccccc2Cl)c([N+](=O)[O-])c1 | 77% (inactive)
O=C(Cc1ccccc1)C(F)(F)F | 107% (inactive)
CC(C)(C)c1ccc(O)c(-c2ccccc2)c1 | 102% (inactive)
C/C=C/c1cc2c(c(=O)o1)C(=O)[C@@H](O)[C@H](C)O2 | -25.4% (active)

###

System: SF-268 CNS
Assay: NCI-60 one-dose screen, 48 h (100 = growth as untreated, 0 = no growth, -100 = all killed)
Conditions: 10 µM unless noted
This is part of a sample that, as a whole, favours compounds with a hit. Of some 83,000 tested, about 20% had one in any assay.

compound | target or test system | growth [%]
Nc1nc2ncc(CNc3ccc(C(=O)NC(CCC(=O)NC(CCC(=O)NC(CCC(=O)NC(CCC(=O)NC(CCC(=O)O)C(=O)O)C(=O)O)C(=O)O)C(=O)O)C(=O)O)cc3)nc2c(=O)[nH]1 (centres undefined) | SF-268 CNS | 105
S=c1[nH]c2cc(Cl)ccc2s1 | SF-268 CNS | 94.2
Oc1ccccc1N=Cc1ccccc1 | SF-268 CNS | 89.9
COc1cc([C@@H]2c3cc4c(cc3[C@H](OC3OC5COC(c6ccccc6)OC5C(O)C3O)[C@H]3COC(=O)[C@H]23)OCO4)cc(OC)c1OC (some centres undefined) | SF-268 CNS | 29.3

###

System: PC-3 prostate
Assay: NCI-60 one-dose screen, 48 h (100 = growth as untreated, 0 = no growth, -100 = all killed)
Conditions: 10 µM unless noted
Compounds without any hit were thinned out: in the full panel of roughly 83,000, 20% have a hit.
Listing of entries alongside the reported growth.

compound | growth / %
CN(C)CCSC1=Nc2ccc(Cl)cc2C(c2ccccc2Cl)N(C)C1 (stereo unspecified) | 48.5
CCCCCC[C@@H](O)C/C=C\CCCCCCCC(=O)OCCOC | 90.4
O=C(Nc1cccc(C(F)(F)F)c1)Oc1ccc(Cl)c2cccnc12 | -40.1
Fc1ccc(NCCS)cc1 | 99.1
CC1(C)OCC(COC(c2ccccc2)(c2ccccc2)c2ccccc2)O1 (stereo unspecified) | 89.2
O=C1C=CC(O)=CC1=P(c1ccccc1)(c1ccccc1)c1ccccc1 | 91.6

###

Test system: COLO 205 colon
Assay: NCI-60 one-dose screen, 48 h (100 = growth as untreated, 0 = no growth, -100 = all killed)
Settings: 10 µM unless noted
This is part of a sample that, as a whole, favours compounds with a hit. Of some 83,000 tested, about 20% had one in any assay.

compound | growth, %
c1ccc2sc(SSN3CC4CCC(CC4)C3)nc2c1 | 128
CN1CSC(=S)N(Cc2ccccc2)C1 | 113
Oc1c(C(Nc2ccccc2)c2ccccc2)ccc2cccnc12 (stereo unspecified) | 16.8
Cc1cc2nc(CC(=O)c3ccncc3)c(=O)[nH]c2cc1C | 130
CC(C)=CCCC(C)C1=C(O)C(=O)C(C)=CC1=O (stereo unspecified) | 50.3
Oc1ccccc1N=Cc1ccccc1 | 125
Oc1ccc(Cl)cc1C(c1cc(Cl)ccc1O)C(Cl)(Cl)Cl | 49.4
CN=C(N)N/N=C(\c1ccccc1)c1ccc(Br)cc1 | -55.6
C/C=C/c1cc2c(c(=O)o1)C(=O)[C@@H](O)[C@H](C)O2 | 35.6
COc1cc(NCc2ccc3nc(N)nc(N)c3c2C)cc(OC)c1OC (tested in a mixture with another compound) | 40.2
O=C(CCl)N(c1ccccc1)c1ccccc1 | 111
COc1cccc2c1C(=O)c1c(O)c3c(c(O)c1C2=O)C[C@@](O)(C(=O)CO)C[C@@H]3OC1CC(OC(C)=O)C(OC(C)=O)C(C)O1 (stereo partly specified) | -6.8
NNc1cccc([N+](=O)[O-])c1 | 110
CCC(C)C(N)C(=O)NC(CC(N)=O)C(=O)NC(CC(C)C)C(=O)NC(CCCCN)C(=O)NC(C)C(=O)NC(CC(C)C)C(=O)NC(C)C(=O)NC(C)C(=O)NC(CC(C)C)C(=O)NC(C)C(=O)NC(CCCCN)C(=O)NC(CCCCN)C(=O)NC(C(=O)NC(CC(C)C)C(N)=O)C(C)CC (stereo unspecified) | 90
CC(C)(C)c1ccc(CCO)cc1 | 110
O=C(NOC(=O)c1ccccc1)c1ccccc1 | 117
CCCCCC[C@@H](O)C/C=C\CCCCCCCC(=O)OCCOC | 115
CN(C)c1ccc(/C=C/c2cc[n+](C)c(/C=C/c3ccc(N(C)C)cc3)c2)cc1 | -68.7
CCCC[n+]1c(/C=C\c2c(OC)cc(OC)cc2OC)ccc2ccccc21 | -53.3
O=[n+]1c2ccccc2n([O-])c2cc(Cl)ccc21 | 76.5
CN(C)CCSC1=Nc2ccc(Cl)cc2C(c2ccccc2Cl)N(C)C1 (stereo unspecified) | 70.4

###

Tested on: M14 melanoma
Experiment: NCI-60 one-dose screen, 48 h
Settings: 10 µM unless noted
About 83,000 compounds went through this panel and 20% of them were active in at least one assay; those are over-represented in the sample as a whole. Calls of active or inactive are those of the source. How the source made its calls: active means growth percent below 10; inactive means the rest.
Possible outcomes: label 1 (active), label 0 (inactive)

compound | assigned category
CCCCCCCCc1cc(Cl)c(O)c(Cl)c1 | label 0
Cc1cccc2c(N)c3ccccc3nc12 | label 1
Cc1cc(C)c([I+]c2c(C)cc(C)cc2C)c(C)c1 | label 1
O=C/C=C/c1ccc([N+](=O)[O-])cc1 | label 0
S=C=Nc1ccc(N2CCOCC2)cc1 | label 0
CCC[CH2][Sn]1([CH2]CCC)[O]C2C(CO)OC(n3ccc(N)nc3=O)C2[O]1 (stereo unspecified) | label 1
N=C1C=C(N)C(=O)c2ccccc21 | label 1
Oc1ccc2ccccc2c1N=Nc1nccs1 | label 0
CCc1cnc2ccccc2c1/C=C/c1ccc(N(C)C)cc1 | label 0
CC/C(=C(/CC)c1ccc(O)cc1)c1ccc(O)cc1 | label 0
CCCN(CCC)C(=O)c1ccc(C)cc1 | label 0
Oc1c(Cl)cc(Cl)cc1C(c1cc(Cl)cc(Cl)c1O)C(Cl)(Cl)Cl | label 0
CC(O)C(O)C(O)C(O)C(O)C(=O)NNc1ccccc1 (stereo unspecified) | label 0
CCCOS(=O)(=O)c1ccccc1 | label 0
CC1(C)CCCC2=C1C(=O)N(SC(Cl)(Cl)Cl)C2=O | label 0
COc1cc(/C=C/C(=O)CC(=O)/C=C/c2ccc(O)c(OC)c2)ccc1O | label 1
O=C(C[P+](c1ccccc1)(c1ccccc1)c1ccccc1)c1ccccc1 | label 0
N#C/C(=N\Nc1ccc(Cl)cc1)C(=O)C1CC1 | label 0
COC(=O)c1ccc(=O)c2nc3/c(=C/O)c(O)cc(=O)c3[nH]c12 | label 0
C/C(=N/NC(N)=S)c1ccc(C)cc1 | label 0
NC(CS/C(Cl)=C/Cl)C(=O)O (stereo unspecified) | label 0
CCc1cccc(CC)c1N1C(=O)C=CC1=O | label 0
Nc1ccc(Oc2ccccc2)c(Cl)c1 | label 0
c1ccc2sc(SSN3CC4CCC(CC4)C3)nc2c1 | label 0
CC(CSc1n[nH]c(=S)s1)c1ccccc1 (stereo unspecified) | label 0
Cc1ccc2cccc(OC(=O)Nc3cccc(C(F)(F)F)c3)c2n1 | label 0

###

Tested on: COLO 205 colon
Assay: NCI-60 one-dose screen, 48 h (100 = growth as untreated, 0 = no growth, -100 = all killed)
Settings: 10 µM unless noted
Compounds without any hit were thinned out: in the full panel of roughly 83,000, 20% have a hit. Activity calls are given as the source filed them. Rule for the calls: active = growth percent below 10; inactive = the rest.

compound | target or test system | growth
COc1ccc2c(c1)c(CC(=O)O)c(C)n2C(=O)c1ccc(Cl)cc1 | COLO 205 colon | 128% (inactive)
NC(=Nc1nc(-c2ccccn2)cc2ccccc12)c1ccccn1 | COLO 205 colon | 6.29% (active)
CCOC(=O)NC(/C=C/c1ccccc1)NC(=O)OCC | COLO 205 colon | 112% (inactive)
CCCCCCN(CCCCCC)CCCNc1nccc2ccccc12 | COLO 205 colon | -66% (active)
CCCCCCCCCCCCN1C(C)=CS/C1=C\C=C\c1scc(C)[n+]1CCCCCCCCCCCC | COLO 205 colon | 8.86% (active)
O=C(/C(Cl)=N/O)c1ccc(-c2ccccc2)cc1 | COLO 205 colon | 85.5% (inactive)
O=C(c1ccccc1)c1ccc(O)c2ncccc12 | COLO 205 colon | 104% (inactive)
O=C1Nc2ccc(Br)cc2C1=O | COLO 205 colon | 106% (inactive)
CCCCCCCCCCCC[n+]1ccc2ccccc2c1 | COLO 205 colon | -80.2% (active)
CC1(C)OC2C(COC(c3ccccc3)(c3ccccc3)c3ccccc3)OC(c3c[nH]c4c(N)ncnc34)C2O1 (configuration not stated) | COLO 205 colon | 68.3% (inactive)
Cc1cc(Br)c2nsnc2c1[N+](=O)[O-] | COLO 205 colon | 0.766% (active)
CC(=O)OC1CC2CCC1(C)C2(C)C (configuration not stated) | COLO 205 colon | 108% (inactive)
